target: Pax5(1-149) Q22A (human, UniProt Q02548 1-149, Q22A); test: EMSA
Sequence (Q02548 1-149 Q22A): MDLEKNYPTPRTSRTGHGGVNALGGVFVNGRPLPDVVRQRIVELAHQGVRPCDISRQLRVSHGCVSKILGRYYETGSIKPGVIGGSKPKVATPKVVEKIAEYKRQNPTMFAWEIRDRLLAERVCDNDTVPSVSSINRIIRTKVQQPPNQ
reported-metric: pKd
pKd is a log-scale quantity: -log10 of the concentration expressed in molar.

Value lookup for pKd; key = P5-EBS probe (dsDNA) DNA 1: TCGAAGGGCCACTGGAGCCCATCTCCGGCACGGC DNA 2: TCGAGCCGTGCCGGAGATGGGCTCCAGTGGCCCT
8.76
